assay: growth suppression of yeast trafficking mutant, preliminary HTS, modulators of trafficking downstream of Golgi apparatus project, 1536-format plate, OD 615 nm (AID 637); details: yeast transport mutant growth, absorbance 615 nm, 18 h; hits give high values; note: test concentration not given here
Measured endpoint: inhibition (%)
Numbers only; they are read as %.

Use these answered entries as a reference point.
>>> numeric_result("CN(Cc1nc(-c2ccncc2)no1)S(=O)(=O)c1ccc(Br)cc1")
1.75
>>> numeric_result("CCc1nnc(NC(=O)CSc2nnc(-c3ccoc3C)n2CC(C)C)s1")
11.3
>>> numeric_result("COc1ccc(CCNS(=O)(=O)c2ccc3c(c2)OCCO3)cc1")
-3.17
>>> numeric_result("CCN(CC(=O)O)S(=O)(=O)c1cc(Cl)ccc1Cl")
-1.75
>>> numeric_result("Cc1ccc(C)c(SCC(=O)Nc2nnc(-c3ccccc3)o2)c1")
-1.27
>>> numeric_result("O=C(CSc1nnc(-c2ccccc2)o1)N1CCc2ccccc2C1")
-5.24

Task item: Using the record for COc1ccc(Cn2c(C)nc3c(c2=O)c2nc4ccccc4nc2n3Cc2ccco2)cc1 , report its inhibition.
Reply: 5.56

Task item: Using the record for CCc1c(C(=O)Nc2cc(C)ccc2OC)[nH]c(C)c1C(C)=O , report its inhibition.
Reply: 14.3

Task item: Using the record for Cn1cc(-c2nc3ccccc3[nH]2)c2ccccc21 , report its inhibition.
Reply: -0.63

Task item: Using the record for COc1ccc(NC(=O)c2ccco2)cc1NC(=O)c1cccs1 , report its inhibition.
Reply: 13.8

Task item: Using the record for O=S(=O)(c1ccccc1)N1CCSC1c1ccco1 (stereo not given) , report its inhibition.
Reply: 5.56

// data source = PubChem BioAssay
